target: 5-hydroxytryptamine receptor 1A (Rattus norvegicus); assay: Binding affinity to 5-hydroxytryptamine 1A receptor in rat cortex using [3H]-8-OH- DPAT as radioligand
pIC50: −log10 of the molar value.
assay metric: pIC50

- compound: "CCCN(CCC)C1CCc2cccc(C(=O)[CH-][N+]#N)c2C1 (centres undefined)"
  study system: "5-hydroxytryptamine receptor 1A (Rattus norvegicus)"
  experimental result: 7.70
- compound: "CCCN(CCC)C1CCc2cccc(OC(=O)[CH-][N+]#N)c2C1 (centres undefined)"
  study system: "5-hydroxytryptamine receptor 1A (Rattus norvegicus)"
  experimental result: 6.97
- compound: "CCCN(CCC)C1CCc2cccc(OCC(=O)C=[N+]=[N-])c2C1 (centres undefined)"
  study system: "5-hydroxytryptamine receptor 1A (Rattus norvegicus)"
  experimental result: 7.14
- compound: "CCCN(CCC)C1CCc2cccc(C(=O)OC)c2C1 (centres undefined)"
  study system: "5-hydroxytryptamine receptor 1A (Rattus norvegicus)"
  experimental result: 8.27

----------
target: 5-hydroxytryptamine receptor 1A (Rattus norvegicus, UniProt P19327); test: Binding affinity to 5-hydroxytryptamine 1A receptor in rat hippocampus using [3H]-8-OH- DPAT as radioligand; format: tissue-based
Sequence (P19327 whole entry): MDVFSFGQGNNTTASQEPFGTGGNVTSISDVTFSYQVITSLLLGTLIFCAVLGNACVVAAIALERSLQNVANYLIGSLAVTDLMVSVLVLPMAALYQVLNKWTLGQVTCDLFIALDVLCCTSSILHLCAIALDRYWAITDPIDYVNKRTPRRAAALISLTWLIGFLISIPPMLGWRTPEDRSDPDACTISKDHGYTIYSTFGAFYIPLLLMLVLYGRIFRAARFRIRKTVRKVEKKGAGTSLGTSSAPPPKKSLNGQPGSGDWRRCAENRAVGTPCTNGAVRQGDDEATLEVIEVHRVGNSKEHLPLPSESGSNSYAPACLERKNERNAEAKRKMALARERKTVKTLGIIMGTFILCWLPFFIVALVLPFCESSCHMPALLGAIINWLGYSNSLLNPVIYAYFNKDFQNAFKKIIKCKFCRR
pIC50: −log10 of the molar value.
Parameter pIC50: see the listing below.
assay metric: pIC50

- compound: "CCCN(CCC)C1CCc2cccc(C(=O)[CH-][N+]#N)c2C1 (stereo not drawn)"
  experimental result: 7.62
- compound: "CCCN(CCC)C1CCc2cccc(OCC(=O)C=[N+]=[N-])c2C1 (stereo not drawn)"
  experimental result: 7.11
- compound: "CCCN(CCC)C1CCc2cccc(OC(=O)[CH-][N+]#N)c2C1 (stereo not drawn)"
  experimental result: 6.81
